- Test system: CRL-7250
- assay_procedure: Cytotoxic Profiling of Annotated Libraries Using Quantitative High-Throughput Screening (AID 1296008); further: nearly all actives have a fitted effect of over 60% in size
- condition_notes: Five cell lines viability, CellTiter-Glo ATP luminescence, 48-72 h
Records with an inconclusive call do not appear. Active and inactive are the calls of the source. The call rests on the fitted dose curve; in most records, active means well fitted inhibition curve with a large enough effect; inconclusive means small, poorly fitted or top-dose-only effect; inactive means flat fitted curve, though single readings scatter.
Mark one answer only. Choices: true (1) = active, false (0) = inactive

q: For this compound, state the assay outcome: CCN1CCN(C(=O)N[C@@H](C(=O)N[C@@H]2C(=O)N3[C@@H]2SC(C)(C)[C@H]3C(=O)O)c2ccccc2)C(=O)C1=O
a: false (0)

***
q: Fill in: this test's call for NC(=O)NS(=O)(=O)c1ccc(Cl)cc1 is ___
a: false (0)

q: Can you handle COc1cc2c(cc1OC)C(=O)CC2 next?
a: false (0)

q: Try this compound next: O=[N+]([O-])c1cncn1CCN1CCOCC1
a: false (0)

q: // query: CCCCOCCOC(=O)c1cccnc1
a: false (0)

====

- tested_on: Peroxisome proliferator-activated receptor alpha (Homo sapiens)
- assay_procedure: qHTS assay for small molecule agonists of the peroxisome proliferator-activated receptor alpha (PPARalpha) signaling pathway (AID 651778); further: % of control where 0% means no effect
- condition_notes: PathHunter PPARalpha complementation, chemiluminescence, 6 h; active compounds read high
The source made the active and inactive calls. Calls come from the whole dose curve; as a rule, active = well fitted activation curve with a large enough effect; inconclusive = small, poorly fitted or top-dose-only effect; inactive = flat fitted curve, though single readings scatter.
recorded_metric: max response

These recorded examples may help you get a feel for the data.
q: // lookup max response for O=C(Oc1ccccc1)c1cccc(C(=O)Oc2ccccc2)c1
a: 4.8% (inactive)

q: Check CCCCCCCCCCCC[N+](C)(C)Cc1ccccc1 too.
a: 8.99% (inactive)

q: Now consider Nc1ccc(O)cc1 .
a: -0.783% (inactive)

q: Would you mind doing CCN(CC)CCOc1ccc(/C(=C(\Cl)c2ccccc2)c2ccccc2)cc1 as well?
a: 11.1% (inactive)

q: Now consider O=C(Nc1ccc(Cl)cc1)Nc1ccc(Cl)c(Cl)c1 .
a: -0.555% (inactive)

q: Next up: CN1C(=O)c2ccccc2C1=O
a: -1.08% (inactive)

q: Moving on to the next compound: Brc1ccccc1-c1ccccc1
a: -0.0593% (inactive)

q: Entry to check: O=C(NO)c1ccccc1
a: -0.429% (inactive)

Consider now this further compound.
q: Endpoint output: max response of CCCCCCCCCCCCCCCC[n+]1ccccc1 . Value?
a: 1.85% (inactive)

====

Consider the following compounds and their measured max response readings.
- System: NIH3T3
- assay_procedure: Cytotoxic Profiling of Annotated Libraries Using Quantitative High-Throughput Screening (AID 1296008); further: nearly all actives have a fitted effect of over 60% in size; on max response: on the % scale 0 is the no-effect control and ±100 the full control effect
- condition_notes: Five cell lines viability, CellTiter-Glo ATP luminescence, 48-72 h; active compounds read low
Inconclusive results are not listed.
Number in %, nothing else.

q: Return reported max response; argument: CC(C)Cc1ccc(C(C)C(=O)OCc2ccccn2)cc1 (configuration not stated)
a: -1.73

q: Follow-up entry: CCCC(CCC)(C(=O)OCC)C(=O)OCC
a: 4.44

Others:
q: So what's the measured max response for this one? Nc1nc(=O)n([C@@H]2O[C@H](CO)[C@@H](O)[C@@H]2F)cc1I
a: -21.4

q: // same read-out, input: CC(C)(C)C1CCC(CC2=C(O)c3ccccc3C(=O)C2=O)CC1 (configuration not stated)
a: -2.94

====

- assay_procedure: qHTS of pediatric cancer cell lines to identify multiple opportunities for drug repurposing: Primary screen for Rh30 cells (AID 1347107); further: on the % scale 0 is the no-effect control and ±100 the full control effect; nearly all actives have a fitted effect of over 75% in size
- condition_notes: Rh30 rhabdomyosarcoma viability, CellTiter-Glo luminescence, 48 h; series mostly up to 46 µM
Results filed as inconclusive are left out. Activity calls are given as the source filed them. The call rests on the fitted dose curve; in most records, active means well fitted cell-killing curve with a large enough effect; inconclusive means small, poorly fitted or top-dose-only effect; inactive means no such curve, though single readings can be large or run the other way.
recorded_metric: activity change, negative = cytotoxic

// worked examples, activity change, negative = cytotoxic included
q: Field request: activity change, negative = cytotoxic | item: CN(C)CCOC1=Cc2ccccc2Sc2ccc(Cl)cc21
a: inactive

q: Next compound up: O=C(O)CNC(=O)CNC(=O)CNC(=O)CSC(=O)c1ccccc1
a: inactive

q: Check CC(=O)N1CCN(c2ccc(O)cc2)CC1 too.
a: inactive

q: Please answer likewise for Cc1cccc(N(C)C(=S)Oc2ccc3c(c2)C2CCC3C2)c1 (configuration not stated)
a: inactive

q: Nc1ccc(C(=O)OCC(O)CO)cc1 (configuration not stated) , same question.
a: inactive

More entries:
q: Item CCN(CC)CC(=O)Nc1c(C)cccc1C(=O)OC has what recorded activity change, negative = cytotoxic?
a: inactive

q: What about O=C(NN1CCCC1)NS(=O)(=O)c1ccc(Cl)cc1 ?
a: inactive

q: Consider next the compound NC(=O)COCCN1CCN(C(c2ccccc2)c2ccc(Cl)cc2)CC1 (configuration not stated) in the same way.
a: inactive

q: Let us now turn to O=C(O)Cc1ccc(OCCNC[C@H](O)c2ccccc2)cc1
a: inactive

q: Input O=C(c1cc(O)c(O)c(O)c1)c1ccc(O)c(O)c1O
a: inactive

q: Next up: Cc1cccc(N(C)C(=S)Oc2ccc3c(c2)CCC3)c1
a: inactive

q: Proceed to O=C1Nc2cc(Cl)ccc2Oc2ccccc21
a: inactive
